System: Human papillomavirus type 1a protein E7 (residues 44-93)
Test: HPV1a E7 fragment binders on microarrays, primary screen, biochemical, small-molecule microarray, residues 44-93, 635 nm fluorescence (AID 1108);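 further: E7 fragment applied at 1 µg/mL in TBST for 1 h at 4 C; score combines spot fluorescence with its signal to noise ratio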
Settings: small-molecule microarray binding, fluorescence 635 nm; higher = more signal
Output met for composite z-score not less than 1; output not met otherwise.

A selection of reference data follows.
• COCCOC(=O)N1C(=O)[C@@]2(c3cc(C#CC4=CCCCC4)ccc31)[C@H](C(=O)Nc1nc3ccccc3s1)[C@H]1C(=O)O[C@H](c3ccccc3)[C@H](c3ccccc3)N1[C@@H]2c1ccccc1OCCO = met
• O=C1C[C@]2(c3ccc([N+](=O)[O-])cc3)C(=O)N(CCN3CCOCC3)c3cc(CO)ccc3[C@H]2N1C1CCCCC1 = not met
• CCOC(=O)C[C@H]1[C@H](OC(=O)c2ccc(C(=O)c3ccccc3)cc2)[C@@H](NC(=O)c2ccc(-c3ccccc3)cc2)c2cc(OCCCO)ccc2N1C(=O)c1ccccc1 = met
• CN(C)CCCNC(=O)[C@@]1(C)c2ccccc2C(=O)N(Cc2cc(F)cc(C(F)(F)F)c2)[C@H]1c1ccc(CO)cc1 = not met
• O=C1O[C@@H](c2ccccc2)[C@@H](c2ccccc2)N2[C@@H](c3ccccc3OCCO)[C@]3(C(=O)Nc4ccc(C#CC5=CCCCC5)cc43)[C@@H](C(=O)Nc3nc4ccccc4s3)[C@H]12 = met
• CC(=O)NCCCC[C@@H]1NC(=O)[C@@H]2C[C@H](C(=O)NCCCCN(C)C)[C@H](c3cccc(OCCO)c3)N2C1=O = not met
• CN(C)CCCNC(=O)[C@@]1(c2ccc([N+](=O)[O-])cc2)CC(=O)N(C2CCCCC2)[C@@H]1c1ccc(CO)cc1 = met
• CCN(CC)c1ccc(N2CC=CC34O[C@@H]5/C=C\CCC(C)OC(=O)C5[C@H]3C(=O)N(C(CO)C(C)C)[C@@H]4C2=O)cc1 (stereo partly specified) = not met
• O=C1O[C@H](c2ccccc2)[C@H](c2ccccc2)N2[C@H]1[C@@H](C(=O)Nc1nc3ccccc3s1)[C@]1(C(=O)Nc3ccc(C#CC4(O)CCCCCC4)cc31)[C@H]2c1ccc(OCCO)cc1 = not met
• COCCOC(=O)N1C(=O)[C@@]2(c3cc(C#Cc4ccc(OC)cc4)ccc31)[C@H](C(N)=O)[C@H]1C(=O)O[C@H](c3ccccc3)[C@H](c3ccccc3)N1[C@@H]2c1ccccc1OCCO = met

IN: Record COc1ccc(C(=O)Nc2ccc(CN3C(=O)[C@@]4(O[C@@H](CCn5cc([C@H](O)c6ccccc6)nn5)[C@H]([Si](C)(C)c5ccc(OC)cc5)[C@H]4C)c4ccccc43)cc2)cc1 ; criterion: composite z-score no lower than 1. Met?
OUT: met

IN: Record O=C1NC(=O)C2C1C=CC(C(O)c1cccc3ccccc13)N2Nc1ccccn1 (stereo unspecified) ; criterion: composite z-score no lower than 1. Met?
OUT: not met

IN: Record CCCCN1CC=CC23O[C@@H]4/C=C\CCC(C)OC(=O)C4[C@H]2C(=O)N(CCCCCO)[C@@H]3C1=O (stereo partly specified) ; criterion: composite z-score no lower than 1. Met?
OUT: not met

IN: Record C=CCOC(=O)[C@H]1[C@@H]2C(=O)O[C@@H](c3ccccc3)[C@@H](c3ccccc3)N2[C@@H](c2ccc(OCCOC(=O)[C@@H]3C[C@@H]4C(=O)N5CCC[C@H]5C(=O)N4[C@@H]3c3cccc(OCCO)c3)cc2)[C@]12C(=O)Nc1ccccc12 ; criterion: composite z-score no lower than 1. Met?
OUT: not met

IN: Record CN1C(=O)C2C=CC(C(O)c3ccc(I)cc3)N(N3CCCCC3)C2C1=O (stereo unspecified) ; criterion: composite z-score no lower than 1. Met?
OUT: met

IN: Record CN1C(=O)C2C=CC(C(O)Cc3ccccc3)N(Nc3ccccc3)C2C1=O (stereo unspecified) ; criterion: composite z-score no lower than 1. Met?
OUT: not met
